Answer each item with its documented log10 IC50.
system: A549; assay: Cytotoxicity against human A549 cells after 48 hrs by MTT assay; assay type: functional, cell-based; conditions: A549, 48 h
Base-10 log of IC50, unit µM.

COc1cc(C2=NOC(COCc3cn(Cc4cc(-c5ccc(F)cc5)cnc4Cl)nn3)C2)cc(OC)c1OC (stereo not drawn) | 1.40

Hi team, please reply with log10 IC50 for each item in this list.
1. COc1cc(COCc2cn(Cc3cc(-c4ccccc4)cnc3Cl)nn2)cc(OC)c1OC
2. COc1cc(C2=NOC(COCc3cn(Cc4cc(-c5ccc(C)cc5)cnc4N4CCOCC4)nn3)C2)cc(OC)c1OC (stereo not drawn)
3. COc1cc(C2=NOC(COCc3cn(Cc4cc(-c5ccccc5)cnc4Cl)nn3)C2)cc(OC)c1OC (stereo not drawn)
4. COc1cc(C2=NOC(COCc3cn(Cc4cc(C)cnc4N4CCSCC4)nn3)C2)cc(OC)c1OC (stereo not drawn)
5. COc1cc(COCc2cn(Cc3cc(-c4ccc(F)cc4)cnc3Cl)nn2)cc(OC)c1OC
6. COc1cc(-c2cc(COCc3cn(Cc4cc(-c5ccc(F)cc5)cnc4Cl)nn3)on2)cc(OC)c1OC

1. 1.80
2. 1.60
3. 0.93
4. 1.66
5. 1.70
6. 1.61

Hi team, please reply with log10 IC50 for each item in this list.
1. COc1cc(-c2cc(COCc3cn(Cc4cc(-c5ccc(C)cc5)cnc4Cl)nn3)on2)cc(OC)c1OC
2. COc1cc(COCc2cn(Cc3cc(C)cnc3N3CCOCC3)nn2)cc(OC)c1OC
3. COc1cc(COCc2cn(Cc3cc(C)cnc3N3CCSCC3)nn2)cc(OC)c1OC
4. COc1cc(-c2cc(COCc3cn(Cc4cc(-c5ccc(C)cc5)cnc4N4CCOCC4)nn3)on2)cc(OC)c1OC
5. COc1cc(COCc2cn(Cc3cc(-c4ccc(C)cc4)cnc3Cl)nn2)cc(OC)c1OC
6. COc1cc(C2=NOC(COCc3cn(Cc4cc(C)cnc4Cl)nn3)C2)cc(OC)c1OC (stereo not drawn)

1: 1.49; 2: 1.81; 3: 1.85; 4: 1.66; 5: 2.18; 6: 1.58

Hi team, please reply with log10 IC50 for each item in this list.
1. COc1cc(-c2cc(COCc3cn(Cc4cc(-c5ccccc5)cnc4N4CCSCC4)nn3)on2)cc(OC)c1OC
2. COc1cc(C2=NOC(COCc3cn(Cc4cc(-c5ccccc5)cnc4N4CCSCC4)nn3)C2)cc(OC)c1OC (stereo not drawn)
3. COc1cc(C2=NOC(COCc3cn(Cc4cc(C)cnc4N4CCOCC4)nn3)C2)cc(OC)c1OC (stereo not drawn)
4. COc1cc(-c2cc(COCc3cn(Cc4cc(C)cnc4Cl)nn3)on2)cc(OC)c1OC
5. COc1cc(C2=NOC(COCc3cn(Cc4cc(-c5ccccc5)cnc4N4CCOCC4)nn3)C2)cc(OC)c1OC (stereo not drawn)

[1.72, 1.50, 1.66, 2.41, 1.59]
